These data points were gathered from patent US7713994B2.

Target: cyclin B/CDK1 enzyme (Homo sapiens)
Construct: purchased New England BioLabs; host or cells: Sf9 insect cells, recombinant baculovirus
Sequence (P06493 whole entry): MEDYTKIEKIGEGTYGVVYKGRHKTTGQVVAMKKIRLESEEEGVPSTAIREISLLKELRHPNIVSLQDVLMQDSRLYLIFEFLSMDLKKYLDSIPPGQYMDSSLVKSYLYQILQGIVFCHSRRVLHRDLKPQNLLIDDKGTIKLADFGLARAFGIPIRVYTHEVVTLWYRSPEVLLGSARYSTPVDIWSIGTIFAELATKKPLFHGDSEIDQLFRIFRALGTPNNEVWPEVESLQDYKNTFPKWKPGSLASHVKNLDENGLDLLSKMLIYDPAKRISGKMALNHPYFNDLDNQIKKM
Sequence (P14635 whole entry partner): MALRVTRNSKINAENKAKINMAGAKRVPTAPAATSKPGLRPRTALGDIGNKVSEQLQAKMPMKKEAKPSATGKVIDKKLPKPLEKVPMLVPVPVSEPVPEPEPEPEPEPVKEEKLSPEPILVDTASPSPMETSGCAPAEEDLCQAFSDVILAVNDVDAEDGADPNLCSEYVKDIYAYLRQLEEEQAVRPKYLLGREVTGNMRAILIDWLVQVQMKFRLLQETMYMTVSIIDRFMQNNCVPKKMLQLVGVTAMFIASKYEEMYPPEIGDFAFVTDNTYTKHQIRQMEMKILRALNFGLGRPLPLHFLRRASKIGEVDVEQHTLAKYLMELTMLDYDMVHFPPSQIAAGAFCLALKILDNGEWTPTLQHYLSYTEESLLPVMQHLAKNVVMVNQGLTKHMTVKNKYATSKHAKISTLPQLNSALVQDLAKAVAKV
Assay: CDK1 ELISA kinase assay (phospho-Rb ser 795 detection)
Type: biochemical
Details: In Vitro Enzyme Assay, cyclin B/CDK1, read-out: CDK1 IC50
EXPERIMENTAL READOUT: IC50 (µM)
Numbers only, in µM.

Batch of 2 compounds: report IC50 for each.
1. O=C1NC(=O)c2ccc(I)cc2/C1=C/NCc1cc(O)c(OCCN2CCCC2)cn1
2. CC(C)(C)c1ccc2c(c1)/C(=C/NCc1ccc(-c3ccoc3)c(O)c1)C(=O)NC2=O

Output:
32.4
13.1

Please give IC50, item by item, for the list that follows.
1. CN1CCN(c2ccc(N/C=C3\C(=O)NC(=O)c4ccc(-c5ccoc5)cc43)c(F)n2)CC1 [Example 457]
2. O=C1NC(=O)c2ccc(-c3ccc(CO)cc3)cc2C1=CNCc1ccc(O)c(O)c1

Output:
1: 24.2; 2: 7

----------
System: LoVo
Assay: Cytotoxicity assay (SRB), LoVo
Format: cell-based
Conditions: Homo sapiens, LoVo, 72 h, LoVo cells, 3 days, SRB; read-out: In Vitro Cellular Activity IC50 LOVO
Exercise: state measured IC50 for each of the molecules provided.
Answers are plain numbers, in µM.

SMILES DATA: O=C1NC(=O)c2ccc(I)cc2/C1=C/NCc1ccc(I)c(O)c1
IC50, µM: 4.3
--
SMILES DATA: O=C1NC(=O)c2ccc(Br)cc2/C1=C/Nc1ccc(N2CCC(N3CCCC3)CC2)nc1
IC50, µM: 8.5

Please state, for each entry, its recorded IC50.
1. O=C1NC(=O)c2ccc(I)cc2/C1=C/Nc1ccc(N2CCN(CC3CC3)CC2)cc1
2. Cc1cccc(-c2ccc3c(c2)C(=CNCc2ccc(O)c(O)c2)C(=O)NC3=O)c1

Output:
[7.3, 15.8]

----------
Assignment: determine reported IC50 for the given compounds.
Target: cyclin B/CDK1 enzyme (Homo sapiens)
Construct: purchased New England BioLabs; host or cells: Sf9 insect cells, recombinant baculovirus
Assay: CDK1 ELISA kinase assay (phospho-Rb ser 795 detection)
Type: biochemical
Details: In Vitro Enzyme Assays, read-out: CDK1 IC50

COMPOUND: O=C1NC(=O)c2ccc(I)cc2/C1=C/Nc1ccc(N2CCC(C(=O)O)CC2)cc1
IC50: 8.6 µM

COMPOUND: CN1CCN(c2ccc(N/C=C3\C(=O)NC(=O)c4ccc([N+](=O)[O-])cc43)cc2)CC1
IC50: 7.2 µM

// each listed compound needs a value for IC50
1. CO[C@H]1CCN(Cc2ccc(N/C=C3\C(=O)NC(=O)c4ccc(-c5ccc(F)cc5)cc43)cc2)C1
2. O=C1NC(=O)c2ccc(-c3ccoc3)cc2/C1=C/NCc1ccc(OC(F)F)c(O)c1
3. CC1CCCN1Cc1ccc(N/C=C2\C(=O)NC(=O)c3ccc(Br)cc32)cc1 (centres unmarked)
4. CN1CCN(CCN(C)c2ccc(NC=C3C(=O)NC(=O)c4ccc(Br)cc43)cc2)CC1 (stereo in doubt)
5. CN1CCN(c2ccc(N/C=C3\C(=O)NC(=O)c4ccc(NS(=O)(=O)c5ccccc5)cc43)cc2)CC1
6. COc1ccc(CN/C=C2\C(=O)NC(=O)c3ccc(F)cc32)cc1O
7. O=C1NC(=O)c2ccc(Br)cc2/C1=C/NCCCN1CCCC1=O
8. O=C1NC(=O)c2ccccc2/C1=C/Nc1ccc2cn[nH]c2c1

Output:
["> 50 µM", "> 50 µM", "> 50 µM", "> 50 µM", "24.2 µM", "> 50 µM", "> 50 µM", "> 33 µM"]

Task: Give its IC50 value. Item: C=CCN1CCCC1c1ccc(N/C=C2\C(=O)NC(=O)c3ccc(I)cc32)cc1 (centres unmarked)
Output: > 50 µM

----------
Target: cyclin B/CDK1 enzyme (Homo sapiens)
Construct: purchased New England BioLabs; host or cells: Sf9 insect cells, recombinant baculovirus
Test: CDK1 ELISA kinase assay (phospho-Rb ser 795 detection)
Format: biochemical
Settings: In Vitro Enzyme Assays, read-out: CDK1 IC50
For each record, write down the corresponding IC50.

Dear colleague, could you send me IC50 for each of the items below? Thanks.
1. O=C1NC(=O)c2ccc(-n3cccc3)cc2C1=CNCc1cc(=O)c(O)co1
2. CCCOc1ccc(CN/C=C2\C(=O)NC(=O)c3ccc(I)cc32)cc1OC(=O)CCl
3. CN1CCCC1c1ccc(N/C=C2\C(=O)NC(=O)c3ccc(-c4cccs4)cc32)cc1 (centres unmarked)
4. CCCOc1ccc(CNC=C2C(=O)NC(=O)c3ccc(-n4cccc4)cc32)cc1O

Output:
1. > 50 µM
2. > 50 µM
3. > 50 µM
4. > 50 µM

Task: What value of measured IC50 is listed for `CC(=O)Oc1cc(CNC=C2C(=O)NC(=O)c3ccc(Br)cc32)cc(OC(C)=O)c1` ?
Output: > 50 µM

----------
Target: cyclin D1/cdk 4 enzyme (Homo sapiens)
Construct: made in house; host or cells: Sf9 insect cells, recombinant baculovirus
Assay: CDK4 ELISA kinase assay (phospho-Rb ser 795 detection)
Assay type: biochemical
Conditions: In Vitro Enzyme Assay, cyclin D1/cdk 4, read-out: CDK4 IC50
pIC50: −log10 of the molar value.
Threshold rule: pIC50 greater than or equal to 5 is yes; below that, no.

Known results for compounds:
COMPOUND: CN1CCN(c2ccc(NC=C3C(=O)NC(=O)c4ccc(C=Cc5ccc(CC#N)cc5)cc43)cc2)CC1 [Example 803]
ANSWER LABEL: yes

COMPOUND: CN1CCN(c2ccc(NC=C3C(=O)NC(=O)c4ccc(-c5ccc(C=CC(=O)O)cc5)cc43)cc2)CC1 [Example 698]
ANSWER LABEL: yes

COMPOUND: COc1ccc(CNC=C2C(=O)NC(=O)c3ccc(C=Cc4ccccn4)cc32)cc1O [Example 735]
ANSWER LABEL: yes

COMPOUND: CC(=O)c1ccccc1-c1ccc2c(c1)C(=CNCc1ccc(S(N)(=O)=O)cc1)C(=O)NC2=O [Example 748]
ANSWER LABEL: no

COMPOUND: NS(=O)(=O)c1ccc(CNC=C2C(=O)NC(=O)c3ccc(-c4ccccc4C(F)(F)F)cc32)cc1 [Example 745]
ANSWER LABEL: no

Task: Threshold query (pIC50 >= 5) on CN1CCN(c2ccc(NC=C3C(=O)NC(=O)c4ccc(-c5cccc(-c6ccccc6)c5)cc43)cc2)CC1 [Example 697]
Output: no

Task: Identify whether the reported pIC50 of the following compound is 5 or greater: Cc1ncsc1C=Cc1ccc2c(c1)C(=CNc1ccc(N3CCN(C)CC3)cc1)C(=O)NC2=O [Example 681]
Output: no

Task: Could you verify whether the entry CN1CCN(c2ccc(NC=C3C(=O)NC(=O)c4ccc(-c5ccc(N(C)C)cc5)cc43)cc2)CC1 [Example 807] shows pIC50 of no less than 5?
Output: no

Task: Please tell me: is the compound CCCOc1cn(C)c(CN/C=C2\C(=O)NC(=O)c3ccc(I)cc32)cc1=O [Example 471] at or over 5 in terms of pIC50?
Output: yes

----------
Molecular target: cyclin E/CDK2 enzyme (Homo sapiens)
Construct: made in house; host or cells: Sf9 insect cells, recombinant baculovirus
Test: CDK2 ELISA kinase assay (phospho-Rb ser 795 detection)
Assay type: biochemical
Conditions: In Vitro Enzyme Assay, read-out: CDK2 IC50
EXPERIMENTAL READOUT: IC50

For orientation, consider the following solved cases.
MOLECULE: CN(C)CCCN(C)c1ccc(N/C=C2\C(=O)NC(=O)c3ccc(Br)cc32)cc1 [Example 876]
MEAS VALUE: > 50 µM

MOLECULE: CN1CCC(Oc2ccc(N/C=C3\C(=O)NC(=O)c4ccc(Br)cc43)cc2)C1 (centres unmarked) [Example 877]
MEAS VALUE: > 50 µM

MOLECULE: CN1CCN(CCN(C)c2ccc(NC=C3C(=O)NC(=O)c4ccc(Br)cc43)cc2)CC1 (stereo in doubt) [Example 870]
MEAS VALUE: > 50 µM

MOLECULE: CN(CCN1CCCCC1)c1ccc(N/C=C2\C(=O)NC(=O)c3ccc(Br)cc32)cc1 [Example 865]
MEAS VALUE: > 50 µM

Could you now consider this next molecule?
Task: Bench note: what IC50 did CN(C)CCOc1ccc(N/C=C2\C(=O)NC(=O)c3ccc(Br)cc32)cc1 [Example 867] show?
Output: > 50 µM

----------
Target: cyclin D1/cdk 4 enzyme (Homo sapiens, UniProt P11802)
Construct: made in house; host or cells: Sf9 insect cells, recombinant baculovirus
Sequence (P11802 whole entry, species assumed): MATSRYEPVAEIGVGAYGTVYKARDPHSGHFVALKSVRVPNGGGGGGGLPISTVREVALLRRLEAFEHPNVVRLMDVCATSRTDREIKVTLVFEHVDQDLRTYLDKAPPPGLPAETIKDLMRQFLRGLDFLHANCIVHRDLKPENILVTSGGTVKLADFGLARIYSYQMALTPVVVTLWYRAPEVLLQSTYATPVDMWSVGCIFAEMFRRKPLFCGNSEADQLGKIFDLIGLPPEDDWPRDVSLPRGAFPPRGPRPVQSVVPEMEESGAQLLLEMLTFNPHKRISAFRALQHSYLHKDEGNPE
Sequence (P24385 whole entry partner, species assumed): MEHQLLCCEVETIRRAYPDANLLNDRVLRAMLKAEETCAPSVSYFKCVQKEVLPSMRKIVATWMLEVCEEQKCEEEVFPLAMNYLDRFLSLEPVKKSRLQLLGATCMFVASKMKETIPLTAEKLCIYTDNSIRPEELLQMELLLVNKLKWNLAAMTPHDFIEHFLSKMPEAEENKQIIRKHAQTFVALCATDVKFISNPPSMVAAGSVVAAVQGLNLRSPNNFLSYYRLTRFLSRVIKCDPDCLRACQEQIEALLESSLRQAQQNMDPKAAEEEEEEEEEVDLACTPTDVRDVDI
Assay: CDK4 ELISA kinase assay (phospho-Rb ser 795 detection)
Assay type: biochemical
Details: In Vitro Enzyme Assays, 200 μM ATP, read-out: CDK4 IC50
EXPERIMENTAL READOUT: log10 IC50 (log10 of the value in µM)
Please keep in mind that the values are log10 of IC50 expressed in µM.

MOLECULE: CN1CCN(c2ccc(N/C=C3\C(=O)NC(=O)c4ccc(I)cc43)cc2)CC1
TARGET ENTITY: cyclin D1/cdk 4 enzyme (Homo sapiens, UniProt P11802)
EXPERIMENTAL READOUT: log10 IC50
MEAS VALUE: -0.32

MOLECULE: CCCCOc1ccc(CN/C=C2\C(=O)NC(=O)c3ccc(Br)cc32)cc1O
TARGET ENTITY: cyclin D1/cdk 4 enzyme (Homo sapiens, UniProt P11802)
EXPERIMENTAL READOUT: log10 IC50
MEAS VALUE: -0.36

MOLECULE: C[C@@H]1CN(c2c(F)cc(N/C=C3\C(=O)NC(=O)c4ccc(-c5ccsc5)cc43)cc2F)C[C@H](C)N1
TARGET ENTITY: cyclin D1/cdk 4 enzyme (Homo sapiens, UniProt P11802)
EXPERIMENTAL READOUT: log10 IC50
MEAS VALUE: -0.35

MOLECULE: CN1CCN(c2ccc(N/C=C3\C(=O)NC(=O)c4ccc(-c5coc(CN6CCCC6)c5)cc43)nc2)CC1
TARGET ENTITY: cyclin D1/cdk 4 enzyme (Homo sapiens, UniProt P11802)
EXPERIMENTAL READOUT: log10 IC50
MEAS VALUE: 0.56

MOLECULE: CN1CCN(c2ccc(N/C=C3\C(=O)NC(=O)c4ccc(-c5ccsc5)cc43)cn2)CC1
TARGET ENTITY: cyclin D1/cdk 4 enzyme (Homo sapiens, UniProt P11802)
EXPERIMENTAL READOUT: log10 IC50
MEAS VALUE: -1.70

# batch: return log10 IC50 for each of the 3 molecules below
1. Cc1cc(N/C=C2\C(=O)NC(=O)c3ccc(-c4ccoc4)cc32)cnc1N1C[C@@H](C)N[C@@H](C)C1
2. CC1CN(C)[C@H](C)CN1c1ccc(N/C=C2\C(=O)NC(=O)c3ccc(I)cc32)cc1 (stereo in doubt)
3. CN1CCN(c2ccc(N/C=C3\C(=O)NC(=O)c4ccc(I)cc43)cc2F)CC1

Output:
1. -0.44
2. 0.48
3. 0.18

Task: Tell me the measured log10 IC50 of `COc1ccc(-c2ccc3c(c2)/C(=C/Nc2cnc(N4C[C@@H](C)N[C@@H](C)C4)c(C)c2)C(=O)NC3=O)cc1` , please.
Output: 1.49
